The measured values listed here are drawn from paper PMC5540273.

Tested on: PDGFRB
condition_label: concentration: 1 μM, replicates: in singlicate; n = 1;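 also: KINOMEscan kinase panel screen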
recorded_metric: %Inh (%)
Dear colleague, please return just the value in %, with no unit written.

Please review the entries below; each comes with its answer.
compound: Cc1cc(Nc2nc(-c3cccc(C)n3)nc3ccccc23)ccn1 [GW872411]
%Inh [%]: 0
//
compound: CCC(=O)c1c(-c2ccccc2)c2cc(Cl)ccc2c(=O)n1Cc1ccc(C(=O)O)cc1
%Inh [%]: 58
//
compound: Cc1ccccc1COc1cc(-n2cnc3cc(Cl)ccc32)sc1C(N)=O [GW813349]
%Inh [%]: 0

QUERY: What does the data say about its %Inh? Entry: COc1ccc(-c2coc3ccc(-c4nnc(SCc5cccc(C#N)c5)o4)cc23)cc1
RESULT: 10

QUERY: Returns the measured %Inh for the input compound. Input: Nc1nc(-c2ccccc2F)c(-c2ccnc3ccccc23)s1 [GW560459]
RESULT: 6

###

Overview of recorded %Inh for various molecules
Test system: CSNK1G3
condition_label: concentration: 1 μM, replicates: in singlicate; n = 1
// units = %; emit number, no label

Some molecules with recorded %Inh:
molecule: COc1cccc(C2=C(Nc3cccc(C(=O)O)c3)C(=O)NC2=O)c1
system_under_test: CSNK1G3
%Inh (%): 7

molecule: O=C(Nc1ccc2c(c1)OCO2)NC1CCN(c2ccnc(NCc3ccc(F)cc3)n2)CC1
system_under_test: CSNK1G3
%Inh (%): 20

molecule: CCC(=O)c1c(-c2ccccc2)c2cc(Cl)ccc2c(=O)n1Cc1cc(C(=O)NC2CC2)n(C)n1
system_under_test: CSNK1G3
%Inh (%): 0

molecule: Cc1nc(N(C)[C@H]2CN(C(=O)CC#N)CC[C@H]2C)c2cc[nH]c2n1
system_under_test: CSNK1G3
%Inh (%): 0

molecule: Nc1nccc2scc(-c3ccc4c(c3)CCN4C(=O)Cc3ccccc3)c12
system_under_test: CSNK1G3
%Inh (%): 26

molecule: Nc1ncnc2c1ncn2-c1cccc2ccccc12
system_under_test: CSNK1G3
%Inh (%): 0

molecule: CCC(=O)c1c(-c2ccccc2)c2cc(Cl)ccc2c(=O)n1Cc1cc(S(C)(=O)=O)n(CC(N)=O)n1
system_under_test: CSNK1G3
%Inh (%): 0

molecule: Nc1ncnc2c1ncn2-c1cccc(F)c1
system_under_test: CSNK1G3
%Inh (%): 0

molecule: COC(=O)c1c(-c2ccccc2)c2cc(Br)ccc2c(=O)n1Cc1ccc(S(C)(=O)=O)cc1
system_under_test: CSNK1G3
%Inh (%): 0

molecule: CCCC(=O)Nc1n[nH]c2ncc(-c3cccc4ccccc34)cc12
system_under_test: CSNK1G3
%Inh (%): 1

QUERY: Item: COc1cc2ncn(-c3cc(OCCCc4ccccc4)c(C(N)=O)s3)c2cc1OC Test system: CSNK1G3 Read-out: %Inh Value: ?
RESULT: 21

QUERY: Param readout= %Inh; system= CSNK1G3; entry= CCC(=O)c1c(-c2ccccc2)c2cc(Cl)ccc2c(=O)n1Cc1ccc(C(=O)O)cc1 ; returns value.
RESULT: 0

QUERY: Any idea what %Inh came out for COc1cc2nccc(Nc3cccc(Oc4ccccc4)c3)c2cc1OC.Cl on CSNK1G3?
RESULT: 26

QUERY: Recall the recorded %Inh for Cc1ccc(-c2ccc3c(ccc4sc5c(c43)NC[C@@H](C)N=C5N(C)C)n2)cn1 with CSNK1G3 and state it.
RESULT: 1

QUERY: Given the entry O=C(NCCNc1ccnc(Nc2ccc(F)cc2)n1)Nc1ccc2c(c1)OCO2 , what %Inh was observed with CSNK1G3?
RESULT: 22

QUERY: Report %Inh for Cn1c(=O)c(F)c(Nc2ccc(I)cc2F)c2c(=O)n(OC[C@H](O)CO)cnc21 tested on CSNK1G3.
RESULT: 4

QUERY: // fetch CSNK1G3 %Inh for COc1cc(Nc2nccc(N3CCC(NC(=O)C(C)c4ccc(Cl)cc4)C3)n2)cc(OC)c1OC (centres unmarked)
RESULT: 25

###

System: CAMK1B
condition_label: concentration: 1 μM, replicates: in singlicate; n = 1
recorded_metric: %Inh (%)
Report the figure in % without appending any unit label.

Worked cases, %Inh given:
compound: Cc1nnc(-c2ccc3ncn(-c4ccc(S(C)=O)cc4)c3c2)o1 (centres unmarked)
recorded_metric: %Inh
reported: 13
--
compound: OCCCNc1nccc(-c2c(-c3cccc(C(F)(F)F)c3)nn3cc(C(F)(F)F)ccc23)n1 [GW630813]
recorded_metric: %Inh
reported: 0
--
compound: O=C(Nc1n[nH]c2cc(-c3ccccc3F)ccc12)C1CC1 [SB-733371]
recorded_metric: %Inh
reported: 0

QUERY: Entry under review: Cc1ccc(-c2ccc3c(ccc4sc5c(c43)NC[C@@H](C)N=C5N(C)C)n2)cn1 . Reported %Inh?
RESULT: 0

QUERY: Need %Inh of CCC(=O)c1c(-c2ccccc2)c2cc(Cl)ccc2c(=O)n1Cc1cc(S(C)(=O)=O)n(CC(N)=O)n1 , thanks.
RESULT: 0

###

System: ANKK1
condition_label: concentration: 1 μM, replicates: in singlicate; n = 1
The following molecules are shown together with reported %Inh values.
The figure you give is taken to be in %; do not add the unit.

molecule: Nc1n[nH]c2nnc(-c3ccccc3)c(-c3ccccc3)c12
reported: 0

molecule: CCS(=O)(=O)c1ccc(OC)c(Nc2ncc(-c3ccc(F)cc3)o2)c1.Cl
reported: 7

QUERY: Value lookup for %Inh; key = Cc1nnc(-c2ccc3ncn(-c4ccc(S(C)=O)cc4)c3c2)o1 (stereo not shown)
RESULT: 0

QUERY: # query: %Inh of entry CCCC(=O)Nc1n[nH]c2ncc(-c3cccc4ccccc34)cc12
RESULT: 7

QUERY: Endpoint output: %Inh of Cn1c(=O)c(F)c(Nc2ccc(I)cc2F)c2c(=O)n(OC[C@H](O)CO)cnc21 . Value?
RESULT: 0

QUERY: # lookup: %Inh of O=C(Nc1n[nH]c2cc(-c3ccccc3F)ccc12)C1CC1
RESULT: 10

QUERY: Item under review: CCC(=O)c1c(-c2ccccc2)c2cc(Cl)ccc2c(=O)n1Cc1cc(S(C)(=O)=O)n(CC(F)F)n1 . Reported %Inh?
RESULT: 0

###

System: EPHA8
condition_label: concentration: 1 μM, replicates: in singlicate; n = 1
recorded_metric: %Inh (%)
Give just the number in %; leave the unit off.

Some solved cases for reference:
compound: Cc1nc(N(C)[C@H]2CN(C(=O)CC#N)CC[C@H]2C)c2cc[nH]c2n1
%Inh (%): 12
//
compound: Cc1c(Cn2c(C)nn3c(=O)cc(N4CCO[C@H](C)C4)nc23)cccc1C(F)(F)F [GSK2373690]
%Inh (%): 29
//
compound: CCn1c(-c2ccoc2)nc2cnccc21 [SB-733887]
%Inh (%): 24
//
compound: O=C(Nc1n[nH]c2cc(-c3ccccc3F)ccc12)C1CC1 [SB-733371]
%Inh (%): 22

Continue with the compound presented below.
QUERY: What is its %Inh for EPHA8? Entry: COc1cc2nccc(Nc3ccc(OCc4ccc(NC(C)=O)cc4)cc3)c2cc1OC.Cl [GW440135]
RESULT: 5

###

System: DMPK2
Construct: gene CDC42BPG
condition_label: concentration: 1 μM, replicates: in singlicate; n = 1
The following compounds are listed with their measured %Inh values.
Numbers only; they are read as %.

Recorded results for 4 compounds are shown here.
compound: CN1C(=O)C(Nc2cc(Cl)c(O)c(Cl)c2)=C(c2ccc(Cl)cc2)C1=O
measure_unit: %
%Inh: 0

compound: CCS(=O)c1ccc(-c2coc3ccc(-c4nnc(C)o4)cc23)cc1 (centres unmarked)
measure_unit: %
%Inh: 0

compound: Nc1nccc2scc(-c3ccc4c(c3)CCN4C(=O)Cc3ccccc3)c12
measure_unit: %
%Inh: 22

compound: COc1cccc(C2=C(Nc3cccc(C(=O)O)c3)C(=O)NC2=O)c1
measure_unit: %
%Inh: 4

QUERY: What %Inh value was documented for this compound, COc1cccc(C2=C(N(C)c3ccccc3)C(=O)NC2=O)c1 ?
RESULT: 0

###

System: OSR1
Construct: gene OXSR1
condition_label: concentration: 1 μM, replicates: in singlicate; n = 1
recorded_metric: %Inh (%)
Express the result in % but write the number alone.

Example results:
compound: Cc1ccc(-c2ccc3c(ccc4sc5c(c43)NC[C@@H](C)N=C5N(C)C)n2)cn1
recorded_metric: %Inh
reported: 0
//
compound: COc1ccc(CNC(=O)NC2CCN(c3ccnc(Nc4ccc(F)cc4)n3)C2)cc1 (centres unmarked)
recorded_metric: %Inh
reported: 0
//
compound: COc1cc2ncn(-c3cc(OCc4ccncc4)c(C(N)=O)s3)c2cc1OC
recorded_metric: %Inh
reported: 31
//
compound: CCCC(=O)Nc1n[nH]c2ncc(-c3cccc4ccccc34)cc12
recorded_metric: %Inh
reported: 0

Could you now look at the following compound, please?
QUERY: Sample COc1ccc(-c2coc3ccc(-c4nnc(SCc5cccc(C#N)c5)o4)cc23)cc1 — what was its %Inh?
RESULT: 0
